The measurements presented in this section are drawn from PubChem BioAssay AID2060885.

# viability, T/C annotations
- Test system: NCI-H23 complex spheroids with HUVEC/MSC, viability
- protocol: Anticancer human tumor NCI-H23 cell line growth inhibition [RAS];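 further: spheroids exposed to compound for 7 days; 100% = DMSO vehicle control viability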
- test conditions: second compound 0.3 µM; first compound 1 µM; active compounds read low

compound	viability, T/C
CC(=O)OC12COC1CC(O)C1(C)C(=O)C(O)C3=C(C)C(OC(=O)C(O)C(NC(=O)OC(C)(C)C)c4ccccc4)CC(O)(C(OC(=O)c4ccccc4)C21)C3(C)C (configuration not stated) + CCn1c(-c2cc(N3CCN(C)CC3)cnc2C(C)OC)c2c3cc(ccc31)-c1csc(n1)CC(NC(=O)C1CC1C)C(=O)N1CCCC(N1)C(=O)OCC(C)(C)C2	8.98%

Would you kindly share the measured viability, T/C for C=CC(=O)N1CCN(c2nc(OCC3CCCN3C)nc3c(F)c(-c4nc(N)cc(C)c4C(F)(F)F)c(Cl)cc23)C(C)C1 (configuration not stated) + CCn1c(-c2cc(N3CCN(C)CC3)cnc2C(C)OC)c2c3cc(ccc31)-c1csc(n1)CC(NC(=O)C1CC1C)C(=O)N1CCCC(N1)C(=O)OCC(C)(C)C2 ?
11.1%

* * *

# viability, T/C per entry
- Test system: NCI-H23 complex spheroids with HUVEC/MSC, viability
- protocol: Anticancer human tumor NCI-H23 cell line growth inhibition [RAS];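 further: spheroids exposed to compound for 7 days; 100% = DMSO vehicle control viability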
- test conditions: second compound 0.00949 µM; first compound 0.0316 µM; active compounds read low

In the examples that follow, each entry is paired with its recorded viability, T/C.
molecule	viability, T/C
Cc1nc(N2CCC3(CC2)COC(C)C3N)c(CO)nc1Sc1ccnc(N)c1Cl (centres undefined) + CCn1c(-c2cccnc2C(C)OC)c2c3cc(ccc31)N1CCOC(CC(NC(=O)C(C(C)C)N(C)C(=O)C3(F)CCN(C(=O)C#CC(C)(C)N(C)C)CC3)C(=O)N3CCCC(N3)C(=O)OCC(C)(C)C2)C1	24%
C[C@@H](NC(=O)c1ncnc(N)c1Cl)c1ncc(C(=O)Nc2cc(C(F)(F)F)c(Cl)cn2)s1 + CCn1c(-c2cc(N3CCN(C)CC3)cnc2C(C)OC)c2c3cc(ccc31)-c1csc(n1)CC(NC(=O)C1CC1C)C(=O)N1CCCC(N1)C(=O)OCC(C)(C)C2	35.3%
CC1(O)CCCC1n1c(=O)c(C(F)F)cc2cnc(NC3CCN(S(C)(=O)=O)CC3)nc21 (centres undefined) + CCn1c(-c2cccnc2C(C)OC)c2c3cc(ccc31)N1CCOC(CC(NC(=O)C(C(C)C)N(C)C(=O)C3(F)CCN(C(=O)C#CC(C)(C)N(C)C)CC3)C(=O)N3CCCC(N3)C(=O)OCC(C)(C)C2)C1	25.2%

Now, please, on to the next molecule.
// returns reported viability, T/C for input O=C(c1ccc(F)c(F)c1Nc1ccc(I)cc1F)N1CC(O)([C@@H]2CCCCN2)C1 + CCn1c(-c2cc(N3CCN(C)CC3)cnc2C(C)OC)c2c3cc(ccc31)-c1csc(n1)CC(NC(=O)C1CC1C)C(=O)N1CCCC(N1)C(=O)OCC(C)(C)C2
19%

* * *

- Test system: NCI-H23 complex spheroids with HUVEC/MSC, viability
- protocol: Anticancer human tumor NCI-H23 cell line growth inhibition [RAS];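 further: spheroids exposed to compound for 7 days; 100% = DMSO vehicle control viability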
- test conditions: second compound 0.0949 µM; first compound 0.1 µM; active compounds read low
Listing of recorded viability, T/C by entry.

GET /values?readout=viability, T/C&item= CC1(O)CCCC1n1c(=O)c(C(F)F)cc2cnc(NC3CCN(S(C)(=O)=O)CC3)nc21 (centres undefined) + CCn1c(-c2cc(N3CCN(C)CC3)cnc2C(C)OC)c2c3cc(ccc31)-c1csc(n1)CC(NC(=O)C1CC1C)C(=O)N1CCCC(N1)C(=O)OCC(C)(C)C2
15.4%
